# System: NCI-H522
# ASSAY_PROTOCOL: NCI tumour cell line growth inhibition, 48 h
Counter-ions that a name gives are not always drawn. Calls of active or inactive are those of the source. Rule as the data show it: active = GI50 up to about 1.1 µM and inactive = higher.
Listed here are compounds together with their documented GI50.

COMPOUND: C=C1C(=O)C[C@H]2C(=C)C(=O)O[C@@H]2C2C1CC[C@@]2(C)O (some centres not stated)
GI50: 12.7 µM (inactive)

COMPOUND: NCCS [CYSTEAMINE HYDROCHLORIDE]
GI50: > 100 µM (inactive)

COMPOUND: O=C(/C=C\c1ccc(Cl)cc1Cl)c1cccs1
GI50: 21.2 µM (inactive)

COMPOUND: CN(C)/N=C(/CC(O)(C(F)(F)F)C(F)(F)F)c1ccc([N+](=O)[O-])cc1
GI50: > 100 µM (inactive)

COMPOUND: Cn1c2cc(O)cc(O)c2c(=O)c2c([N+](=O)[O-])cccc21
GI50: > 100 µM (inactive)

COMPOUND: CC1CC2C3CCC4=CC(=O)C=CC4(C)C3(F)C(O)CC2(C)C1(O)C(=O)COP(=O)(O)O (configuration not stated)
GI50: > 100 µM (inactive)

COMPOUND: COC(=O)CCCC(=O)NC1=C(Nc2ccccc2)C(=O)c2ccccc2C1=O
GI50: 16.9 µM (inactive)

COMPOUND: C#CCn1c(=O)c2cc(OC)c(OC)cc2n(CC#C)c1=O
GI50: > 10 µM (inactive)

COMPOUND: C=C1C(=O)OC2CC1C(OC(=O)/C=C/c1ccccc1)C/C(C)=C/CC/C(C)=C/CCC2(C)O (configuration not stated)
GI50: 0.692 µM (active)

COMPOUND: O=c1c2nc(-c3ccccc3)oc2n(-c2ccccc2)c(=O)n1-c1ccccc1
GI50: 21.4 µM (inactive)

COMPOUND: COc1cc(C2c3cc4c(cc3[C@H](NS(C)(=O)=O)C3COC(=O)[C@H]23)OCO4)cc(OC)c1OC (some centres not stated)
GI50: 0.0671 µM (active)

COMPOUND: O=C(NCCn1ccnn1)Nc1ccccc1
GI50: > 100 µM (inactive)

---

Listed here are molecules together with their documented GI50.
# Test system: OVCAR-5
# ASSAY_PROTOCOL: NCI tumour cell line growth inhibition, 48 h
Calls of active or inactive are those of the source. Rule as the data show it: active = GI50 up to about 1.1 µM and inactive = higher.

MOLECULE: CN(C)c1ccc(/C=C2\N=C(NN)NC2=O)cc1
GI50: > 100 µM (inactive)
//
MOLECULE: Cn1nc(C(=O)N2CC(CCl)c3c2cc([N+](=O)[O-])c2ccccc32)cc1NC(=O)Nc1cc(C(=O)N2CC(CCl)c3c2cc([N+](=O)[O-])c2ccccc32)nn1C (configuration not stated)
GI50: > 100 µM (inactive)
//
MOLECULE: O=C(c1cc(Cl)ccc1Cl)N1CCN(C(=O)c2cc(Cl)ccc2Cl)CC1
GI50: > 100 µM (inactive)
//
MOLECULE: C1=N\CCNCC/N=C/c2ccccc2OCc2cccc(n2)COc2ccccc2/1
GI50: 37.5 µM (inactive)
//
MOLECULE: CC(=O)/N=C1\NC(=O)/C(=C/c2ccccc2Cl)N1C
GI50: > 100 µM (inactive)
//
MOLECULE: C#CCn1c(=O)c2cc(OC)c(OC)cc2n(CC#C)c1=O
GI50: > 10 µM (inactive)
//
MOLECULE: O=C(c1ccccc1)[C@H]1Nc2ccc(Cl)cc2[C@H]2c3ccccc3O[C@H]21
GI50: 16 µM (inactive)
//
MOLECULE: COC(=O)c1nc(C(=O)OC)c2c([nH]c3ccccc32)c1C(=O)OC
GI50: > 100 µM (inactive)
//
MOLECULE: COc1ccc(C(=C2C=CC=C2)c2ccc(OC)cc2)cc1
GI50: 32.3 µM (inactive)
//
MOLECULE: Cc1cccc(NC(N)=S)c1
GI50: > 100 µM (inactive)
//
MOLECULE: CCCCCCCCCCCCC(O)C(=O)O (configuration not stated)
GI50: > 100 µM (inactive)
//
MOLECULE: CC(C)(C)OC(=O)N1C/C=C\C(=O)C2(OCCO2)c2ccccc21
GI50: > 100 µM (inactive)

---

# Test system: NCI-H23
# ASSAY_PROTOCOL: NCI tumour cell line growth inhibition, 48 h
Where a name gives a salt, the structure may show the parent alone. Calls of active or inactive are those of the source. Rule as the data show it: active = GI50 up to about 1.1 µM and inactive = higher.

COMPOUND: Cc1nccc2c1[nH]c1cc(O)ccc12 [HARMOL HYDROCHLORIDE]
ASSAYED_TARGET: NCI-H23
GI50: 76.7 µM (inactive)
//
COMPOUND: COc1ccc2c(c1)CC1COc3cc(OC)ccc3C1O2 (stereo unspecified)
ASSAYED_TARGET: NCI-H23
GI50: > 100 µM (inactive)
//
COMPOUND: CC1(C)CC2=C(SC3C=CC=CC3N2)C(=O)C1C(=O)C(N)=O (stereo unspecified)
ASSAYED_TARGET: NCI-H23
GI50: > 100 µM (inactive)
//
COMPOUND: CCC1CCC2CCCC(C)N12 (stereo unspecified)
ASSAYED_TARGET: NCI-H23
GI50: > 100 µM (inactive)
//
COMPOUND: Cc1cc(C)nc(NC(=S)Nc2cccc(Cl)c2)c1
ASSAYED_TARGET: NCI-H23
GI50: > 100 µM (inactive)
//
COMPOUND: COc1ccccc1NCc1nnc(CCCCCCCCc2nnc(CNc3ccccc3OC)o2)o1
ASSAYED_TARGET: NCI-H23
GI50: > 100 µM (inactive)
//
COMPOUND: CO[C@H]1CC[C@]2(C)C3=CC[C@@]4(C)C(CC[C@@H]4C(C)CC[C@@H](C)C(C)C)C(=CCC2C1)O3 (stereo partly specified)
ASSAYED_TARGET: NCI-H23
GI50: > 7.91 µM (inactive)
//
COMPOUND: CCOc1cn(C2OC(CO)C(O)C2O)c(=O)[nH]c1=O (stereo unspecified)
ASSAYED_TARGET: NCI-H23
GI50: > 100 µM (inactive)
//
COMPOUND: C=CC1CN2CCC1CC2C(O)c1ccnc2ccc(OC)cc12 (stereo unspecified)
ASSAYED_TARGET: NCI-H23
GI50: 89.1 µM (inactive)
//
COMPOUND: COC(=O)C[S+]([O-])c1ccccc1 (stereo unspecified)
ASSAYED_TARGET: NCI-H23
GI50: 35 µM (inactive)
//
COMPOUND: COc1ccc(C2(CN(C)C)COc3cc(OC)c(OC)cc3C2=O)cc1OC (stereo unspecified)
ASSAYED_TARGET: NCI-H23
GI50: 32.7 µM (inactive)
//
COMPOUND: O=C(/N=C(/Nc1ccccc1)SCCS/C(=N\C(=O)c1ccccc1)Nc1ccccc1)c1ccccc1
ASSAYED_TARGET: NCI-H23
GI50: 59.8 µM (inactive)
//
COMPOUND: C1COCCOP2(N3CC3)=NP(N3CC3)(=NP(N3CC3)(N3CC3)=N2)OCCOCCO1 (stereo unspecified)
ASSAYED_TARGET: NCI-H23
GI50: > 100 µM (inactive)
//
COMPOUND: OC(C/C(=N\N=C(/CC(O)(C(F)(F)F)C(F)(F)F)c1ccccc1)c1ccccc1)(C(F)(F)F)C(F)(F)F
ASSAYED_TARGET: NCI-H23
GI50: > 10 µM (inactive)
//
COMPOUND: CC(C)C1C(=O)NC(CO)Cc2c[nH]c3c(C(c4c[nH]c5ccccc45)C(O)CO)ccc(c23)N1C (stereo unspecified)
ASSAYED_TARGET: NCI-H23
GI50: > 100 µM (inactive)
//
COMPOUND: C=CC(CBr)CCC(Br)C(C)(C)Br (stereo unspecified)
ASSAYED_TARGET: NCI-H23
GI50: > 10 µM (inactive)
//
COMPOUND: O/N=C1/C(=C/c2ccc(Oc3ccccc3)cc2)CCCC1C(NO)c1ccc(Oc2ccccc2)cc1 (stereo unspecified)
ASSAYED_TARGET: NCI-H23
GI50: 16.9 µM (inactive)
//
COMPOUND: CC(=O)Oc1ccc(O)c2c1CCCC2
ASSAYED_TARGET: NCI-H23
GI50: > 52.8 µM (inactive)
//
COMPOUND: C[N+](CCCl)(CCCl)Cc1cccc2cccc([N+](=O)[O-])c12
ASSAYED_TARGET: NCI-H23
GI50: 30 µM (inactive)
//
COMPOUND: CC(C)CC[C@H](O)[C@@H](C)[C@H]1[C@@H](OC2OC(C)C(O)C(O)C2O)C[C@H]2[C@@H]3CC=C4C[C@@H](O)CC[C@]4(C)[C@H]3[C@@H](O)C[C@]12C (stereo partly specified)
ASSAYED_TARGET: NCI-H23
GI50: 8.49 µM (inactive)
//
COMPOUND: CC1=NC2(CCCCC2)N(Cl)C(=O)C1SC#N (stereo unspecified)
ASSAYED_TARGET: NCI-H23
GI50: 25.1 µM (inactive)
